Give TGI for every item shown.
System: LOX IMVI melanoma
Assay: NCI tumour cell line growth inhibition, 48 h
Answers are plain numbers, in µM.

Answered examples (5):
O=C(CCN1CCCC1)Nc1ccc2c(Nc3ccc(F)cc3)c3ccccc3nc2c1: 2.01
Nc1[nH]nc(Nc2ccccc2)c1-c1nc2ccccc2s1: 2.97
Cc1cc(NS(=O)(=O)c2ccc(NC(=O)c3ccc(Cl)c4c(Nc5ccc(S(=O)(=O)Nc6cc(C)on6)cc5)c5ccccc5nc34)cc2)no1: 41.6
O=NNc1ccc(-c2ccccc2)cn1: 28.8
CCN1C(=O)N(CC)C2C1NN=c1s/c(=C3\C(=O)Nc4ccccc43)c(=O)n12 (configuration not stated): 29.2

Dear reader, for each entry below, please note its TGI.
1. ClCCCN1CCN(CCCl)CC1
2. Cc1cccc(CNc2c3ccccc3nc3ccccc23)c1
3. Cc1cc(C)c2c(=N)c3ccccc3n(CCCCCCCCn3c4ccccc4c(=N)c4c(C)cc(C)nc43)c2n1

Ans.
1: 608; 2: 2.9; 3: 2.61

Qu. Entry `CC(=O)CC[N+](C)(C)C` : reported TGI = ?
Ans. 37.8

* * *

System: OVCAR-5 ovarian
Experiment: NCI tumour cell line growth inhibition, 48 h
measurement.kind: GI50

See these solved cases before continuing.
O=C(c1ccc(Cl)cc1Cl)N1CCN(C(=O)c2ccc(Cl)cc2Cl)C1=S: 21.6 µM
O=C1/C(=C/c2ccc(F)cc2)COc2ccc(O)c(O)c21: 3 µM
CCCC(=O)Oc1ccc(/C(=C(\C)c2ccc(Cl)cc2)c2ccc(OCCN(CC)CC)cc2)cc1: 4.84 µM

Fill in GI50 for each of the 2 molecules listed.
1. O=C1c2c(c3c4cc(F)ccc4oc3c3[nH]c4ccccc4c23)C(=O)N1O
2. C[C@H]1C[C@@H](n2c(Nc3ccc(OC(F)(F)F)cc3)nc3cc(CCC(=O)O)ccc32)CC(C)(C)C1

Ans.
38.2 µM
17 µM

* * *

Tested on: LOX IMVI melanoma
Assay: NCI tumour cell line growth inhibition, 48 h; in the data active = GI50 below about 0.43 µM; inactive = the rest
Give one outcome, nothing more. List: active, inactive

Answered examples (3):
COc1ccc(Cn2cc3c(c2-c2ccccc2)CCc2cnoc2-3)cc1: active
N#CC1=C(N)NC(=O)C(C#N)C12Nc1ccccc1S2 (stereo not given): inactive
CCN1C(=O)N(CC)C2C1NN=c1s/c(=C3\C(=O)Nc4ccccc43)c(=O)n12 (stereo not given): inactive

Qu. Each molecule tested received a call. Report the one for `COc1ccc(CCN2CCCn3c2nc2ccccc2c3=O)cc1` .
Ans. active

Qu. Entry `O=C(CSSCC(=O)c1ccc(Cl)cc1)c1ccc(Cl)cc1` : call = ?
Ans. inactive

Qu. Called result for `Cc1cccc(CNc2c3ccccc3nc3ccccc23)c1`
Ans. inactive

Qu. Kindly provide the recorded test outcome for the following molecule: `COc1cc(C[C@H]2COC(=O)[C@]2(O)Cc2ccc(OCc3ccccc3)c(OC)c2)ccc1OCc1ccccc1`
Ans. inactive

Qu. Can you look up the reported call for `CN[C@@H](C)C(=O)N[C@H](C(=O)N1CCC[C@H]1c1nc(C(=O)c2ccc(F)cc2)cs1)C1CCCCC1` for me?
Ans. inactive

Qu. Recorded test call requested for `Cc1cc(NC(=O)NCCOc2ccc(N3C(N)=NC(N)=NC3(C)C)cc2Cl)ccc1S(=O)(=O)F`
Ans. inactive

Qu. // param item: `COC(=O)CNC(=O)C(=O)c1c(O)c(O)c(C(C)C)c2cc(C)c(-c3c(C)cc4c(C(C)C)c(O)c(O)c(C(=O)C(=O)NCC(=O)OC)c4c3O)c(O)c12` ; yields the recorded call
Ans. inactive

Qu. Per the records of this test, what outcome belongs to `O=[N+]([O-])c1ccccc1/C=N\NC(=S)N/N=C/c1ccccc1[N+](=O)[O-]` ?
Ans. inactive

Qu. Hey, what did the test say about `Nc1c(C(=O)c2cccc(-c3cccnc3)c2)cnn1-c1ccc(F)cc1` ?
Ans. inactive

Qu. Query: recorded result category for `O=C1/C(=C/c2ccc(F)cc2)COc2ccc(O)c(O)c21` in this test
Ans. inactive

Qu. For `CN(c1cccc(C(=O)O)c1)c1cc(O/N=[N+](\[O-])N(C)C)c([N+](=O)[O-])cc1[N+](=O)[O-]` , what call appears in the results of this test?
Ans. inactive

Qu. Fill in: this test's call for `N.N.N.N.N#N.N#N.[Cl-].[Os+6]` is ___
Ans. inactive
